System Under Test: Keap1 Kelch domain (321-609) / TAMRA-labeled 16mer NRF2 peptide (ETGE motif) (Homo sapiens)
Construct: the Kelch domain (321-609) of Keap1 is used
Protocol Text: NRF2-Keap1 FP Assay (Keap1 Kelch fluorescence polarization)
Condition Label: 20 nM Keap1 (321-609), 8 nM Tamra labeled peptide

{"columns": ["Compound", "IC50"],
 "data": [
  ["C[C@H](Oc1cccc(-c2cccc(-n3ncc(C(=O)OCOC(=O)C(C)(C)C)c3[C@@H]3C[C@H]3c3cn(C)nn3)c2)c1)C1CCCCC1", "> 10000 nM"],
  ["C[C@@H](Oc1cccc(-c2cccc(-n3ncc(C(=O)O)c3[C@@H]3C[C@H]3c3cn(C)nn3)c2)c1)C1CCCCC1", "100 to 1000 nM"],
  ["Cn1cc([C@@H]2C[C@H]2c2c(C(=O)O)cnn2-c2cccc(-c3cccc(-n4ncc5c4C(C)(C)CC5)c3)n2)nn1 (racemic)", "10 to 100 nM"],
  ["CN(CC1CCCC1)C(=O)c1cccc(-c2cccc(-n3ncc(C(=O)O)c3C3CC3)c2)c1F", "10 to 100 nM"],
  ["COCC1CCCCN1C(=O)c1cccc(-c2cccc(-n3ncc(C(=O)O)c3C3C[C@H]3c3cn(C)nn3)c2)c1F (mixture of isomers)", "10 to 100 nM"],
  ["Cn1cc([C@H]2C[C@@H]2c2c(C(=O)O)cnn2-c2cccc(-c3cccc(OCc4ccc(-c5ccccc5)cc4)c3)c2)nn1 (racemic)", "100 to 1000 nM"],
  ["Cn1cc(C2CC2c2c(C(=O)O)cnn2-c2cccc(-c3cccc(CCC4CCCCC4)c3)c2)nn1 (centres unmarked)", "100 to 1000 nM"],
  ["C[C@H](Oc1cccc(-c2cccc(-n3ncc(C(=O)O)c3[C@@H]3C[C@H]3c3cn(C4CN(C)C4)nn3)c2)c1)C1CCCCC1 (racemic)", "10 to 100 nM"],
  ["Cn1cc(C2CC2c2c(C(=O)O)cnn2-c2cccc(-c3cccc(OC4CCOCC4)c3F)c2)nn1 (centres unmarked)", "10 to 100 nM"],
  ["Cn1cc([C@H]2C[C@@H]2c2c(C(=O)O)cnn2-c2cccc(-c3cccc(C(=O)N4CCCC(C)(C)C4)c3F)c2)nn1 (racemic)", "10 to 100 nM"],
  ["C[C@@H]1Cc2ccc(Br)cc2S(=O)(=O)N(Cc2cccc(-c3cccc(-n4ncc(C(=O)O)c4[C@@H]4C[C@H]4c4cn(C)nn4)c3)c2)C1 (single isomer, unassigned; isomer 2)", "10 to 100 nM"],
  ["CC[C@@H]1CN(C(=O)c2cccc(-c3cccc(-n4ncc(C(=O)O)c4[C@@H]4C[C@H]4c4cn(C)nn4)c3)c2)Cc2ccccc2O1", "10 to 100 nM"],
  ["C[C@H](Oc1cccc(-c2cccc(-n3ncc(C(=O)O)c3[C@H]3C[C@@H]3c3cn(C4CCOCC4)nn3)c2)c1)C1CCCCC1", "1000 to 10000 nM"],
  ["CC(=O)OCOC(=O)c1cnn(-c2cccc(-c3cccc(O[C@@H](C)C4CCCCC4)c3)c2)c1[C@@H]1C[C@H]1c1cn(C)nn1", "100 to 1000 nM"],
  ["C[C@@H]1CCC[C@H](C)N1C(=O)c1cccc(-c2cccc(-n3ncc(C(=O)O)c3[C@H]3C[C@@H]3c3cn(C)nn3)c2)c1F (single isomer, unassigned)", "10 to 100 nM"],
  ["CCCC1(C)CCc2cnn(-c3cccc(-c4cccc(-n5ncc(C(=O)O)c5C5CC5)c4)c3)c21 (centres unmarked)", "100 to 1000 nM"],
  ["CO[C@H]1CC[C@H](COc2cccc(-c3cccc(-n4ncc(C(=O)O)c4[C@H]4C[C@@H]4c4cn(C)nn4)c3)c2)CC1 (racemic)", "10 to 100 nM"],
  ["CC[C@H]1COc2ccccc2CN1Cc1cccc(-c2cccc(-n3ncc(C(=O)O)c3[C@@H]3C[C@H]3c3cn(C)nn3)c2)c1", "10 to 100 nM"],
  ["Cn1cc([C@@H]2C[C@H]2c2c(C(=O)O)cnn2-c2cccc(-c3cccc(CN4CCOCC4)c3)c2)nn1 (racemic)", "100 to 1000 nM"],
  ["C[C@H](Oc1cccc(-c2cccc(-n3ncc(C(=O)O)c3[C@@H]3C[C@H]3c3cn(CC(F)(F)F)nn3)c2)c1)C1CCCCC1", "10 to 100 nM"],
  ["Cn1cc(C2CC2c2c(C(=O)O)cnn2-c2cccc(-c3cccc(OCc4cccc(F)c4)c3)c2)nn1 (centres unmarked)", "100 to 1000 nM"],
  ["O=C(O)c1cnn(-c2cccc(-c3cccc(C(=O)N4CCCCC45CC5)c3F)c2)c1C1CC1", "100 to 1000 nM"],
  ["Cn1cc(C2CC2c2c(C(=O)O)cnn2-c2cccc(-c3cccc(SCC4CCCCC4)c3)c2)nn1 (centres unmarked)", "10 to 100 nM"],
  ["Cn1cc(C2CC2c2c(C(=O)O)cnn2-c2cc(C#N)cc(-c3cccc(OCC4CCCCC4)c3)c2)nn1 (centres unmarked)", "> 10000 nM"],
  ["C[C@@H]1Cc2ccccc2S(=O)(=O)N(Cc2cccc(-c3cccc(-n4ncc(C(=O)O)c4[C@@H]4C[C@H]4c4cn(C)nn4)c3)c2)C1", "10 to 100 nM"],
  ["CC(Oc1cccc(-c2cccc(-n3ncc(C(=O)O)c3[C@H]3C[C@@H]3c3cn(C)nn3)c2)c1)C1CCCCCC1 (mixture of isomers)", "10 to 100 nM"]
]}

----------
System Under Test: full length Keap1 protein / full length NRF2 protein (Homo sapiens)
Construct: full length NRF2 protein and full length Keap1 protein (Keap1 exists a dimer) are used; His
Protocol Text: NRF2-Keap1 TR-FRET Assay
Type: binding
Condition Label: 25 nM Keap1-FlagHis and 50 nM biotin-NRF2 added
pIC50: −log10 of the molar value.
Measured Metric: pIC50

{"columns": ["Molecule", "Endpoint Value"],
 "data": [
  ["Cc1nc(-c2cccc(-c3cccc(-n4ncc(C(=O)O)c4C4CC4)c3)c2)no1 [Example 211]", "4.00 to 5.00"],
  ["Cn1cc([C@@H]2C[C@H]2c2c(C(=O)O)cnn2-c2cccc(-c3cncc(OCC4CCCCC4)c3)c2)nn1 (racemic) [Example 246]", "5.00 to 6.00"],
  ["CC(=O)N[C@@H]1CC[C@H](c2c(C(=O)O)cnn2-c2cccc(-c3cccc(OC(C)C)c3F)c2)C1 (racemic) [Example 13]", "4.00 to 5.00"],
  ["CCC[C@@H]1CCCCN1C(=O)c1cccc(-c2cc(C)cc(-n3ncc(C(=O)O)c3[C@@H]3C[C@H]3c3cn(C)nn3)c2)c1 (single isomer, unassigned) [Example 155]", "7.00 to 8.00"],
  ["O=C(O)c1cnn(-c2cccc(-c3cccc(C(=O)N4CCCCC45CC5)c3F)c2)c1C1CC1 [Example 19]", "5.00 to 6.00"],
  ["C[C@@H]1CCC[C@H](C)N1C(=O)c1cccc(-c2cccc(-n3ncc(C(=O)O)c3[C@@H]3C[C@H]3c3cn(C)nn3)c2)c1F (single isomer, unassigned) [Example 262]", "7.00 to 8.00"],
  ["CN(CC1CC1)C(=O)c1cccc(-c2cccc(-n3ncc(C(=O)O)c3C3CC3)c2)c1F [Example 48]", "5.00 to 6.00"],
  ["Cn1cc([C@@H]2C[C@H]2c2c(C(=O)O)cnn2-c2cccc(-c3cccc(OCC4CCCC(C(F)(F)F)C4)c3)c2)nn1 (mixture of isomers) [Example 147]", "6.00 to 7.00"],
  ["CCC[C@@H]1CCCCN1C(=O)c1cccc(-c2cccc(-n3ncc(C(=O)O)c3C3CC3c3cn(C)nn3)c2)c1F (stereo partly shown) [Example 57]", "7.00 to 8.00"],
  ["O=C(O)c1cnn(-c2cccc(-c3cccc(C(=O)N4CCOC5(CCCC5)C4)c3F)c2)c1C1CC1 [Example 44]", "6.00 to 7.00"],
  ["O=C(O)c1cnn(-c2cccc(-c3cccc(C(=O)N(CC4CCCC4)CC4CC4)c3F)c2)c1C1CC1 [Example 14]", "6.00 to 7.00"],
  ["CC(Oc1cccc(-c2cccc(-n3ncc(C(=O)O)c3[C@@H]3C[C@H]3c3cn(C)nn3)n2)c1)C1CCCCC1 (relative stereo) [Example 249]", "7.00 to 8.00"],
  ["O=C(O)c1cnn(-c2cccc(-c3cccc(C(=O)N4CCCCC4CCC(F)(F)F)c3F)c2)c1C1CC1 (stereo not shown) [Example 38]", "6.00 to 7.00"]
]}

----------
System Under Test: full length Keap1 protein / full length NRF2 protein (Homo sapiens, UniProt Q14145)
Construct: full length NRF2 protein and full length Keap1 protein (Keap1 exists a dimer) are used; His
Sequence (Q14145 whole entry): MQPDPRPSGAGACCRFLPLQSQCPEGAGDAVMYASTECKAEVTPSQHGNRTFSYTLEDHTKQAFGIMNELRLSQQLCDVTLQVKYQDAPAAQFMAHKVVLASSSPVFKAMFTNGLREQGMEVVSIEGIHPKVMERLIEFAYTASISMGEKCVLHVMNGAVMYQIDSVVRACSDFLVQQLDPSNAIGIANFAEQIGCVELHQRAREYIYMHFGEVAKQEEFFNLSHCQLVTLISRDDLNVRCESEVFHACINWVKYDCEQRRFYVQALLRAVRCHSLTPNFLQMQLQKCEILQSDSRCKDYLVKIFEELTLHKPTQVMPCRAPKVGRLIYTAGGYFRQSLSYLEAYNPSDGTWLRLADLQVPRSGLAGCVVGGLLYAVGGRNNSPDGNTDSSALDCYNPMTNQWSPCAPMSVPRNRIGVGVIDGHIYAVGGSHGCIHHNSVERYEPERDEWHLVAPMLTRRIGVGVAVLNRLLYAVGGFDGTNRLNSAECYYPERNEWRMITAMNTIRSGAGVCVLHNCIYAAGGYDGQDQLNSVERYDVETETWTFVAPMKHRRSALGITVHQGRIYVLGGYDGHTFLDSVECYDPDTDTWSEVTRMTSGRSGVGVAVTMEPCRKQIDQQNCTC
Protocol Text: NRF2-Keap1 TR-FRET Low Protein Assay
Format: binding
Condition Label: 1.25 nM Keap1 FlagHis and 2.5 nM biotin-NRF2 added
Listing: IC50 of selected compounds
Measured Metric: IC50

{"columns": ["Compound", "Endpoint Value"],
 "data": [
  ["CC[C@H]1c2ccccc2OC(C)(C)CN1Cc1cccc(-c2cccc(-n3ncc(C(=O)O)c3[C@@H]3C[C@H]3c3cn(C)nn3)c2)c1 (single isomer, unassigned; isomer 1)", "< 10 nM"],
  ["CC(C)CN(C)C(=O)c1cccc(-c2cccc(-n3ncc(C(=O)O)c3[C@@H]3C[C@H]3c3cn(C)nn3)c2)c1F (racemic)", "< 10 nM"],
  ["CCn1cc([C@@H]2C[C@H]2c2c(C(=O)O)cnn2-c2cccc(-c3cccc(O[C@@H](C)C4CCCCC4)c3)c2)nn1 (racemic)", "10 to 100 nM"],
  ["Cn1cc(C2CC2c2c(C(=O)O)cnn2-c2cccc(-c3cccc(OCCC(C)(C)C)c3)c2)nn1 (stereo not drawn)", "10 to 100 nM"],
  ["CC(CC1CCCCC1)Oc1cccc(-c2cccc(-n3ncc(C(=O)O)c3C3CC3c3cn(C)nn3)c2)c1 (stereo not drawn)", "10 to 100 nM"],
  ["CC[C@H]1c2ccccc2OCCN1Cc1cccc(-c2cccc(-n3ncc(C(=O)O)c3[C@@H]3C[C@H]3c3cn(C)nn3)c2)c1 (single isomer, unassigned; isomer 1) [Example 122]", "< 10 nM"]
]}

The measurements presented in this section are drawn from patent US10364256B2.
